# Test system: Oryza sativa, (L.) Tebonnet
# Protocol Summary: Rice tolerance to post-transplant applications under flooded paddy conditions (Example 187), ORYSAT (Rice, Tebonnet); as to herbicidal effect rating ORYSAT: meaning of each grade not given here
# Recorded Conditions: Rate 0.2500 kg/ha, rated 3-4 weeks after treatment
Under this convention, Criterion met denotes herbicidal effect rating ORYSAT strictly below 2 and Criterion not met denotes herbicidal effect rating ORYSAT at or above 2.

Compound	Assigned Category
Cc1ccc(OC(C)(C)C(=O)OC(C)C)c(-c2nsc3ccc(-n4c(=O)cc(C(F)(F)F)n(C)c4=O)cc23)c1 [Example 547]	Criterion not met
Cc1ccc(OC(C)C(=O)c2ccc(C)c(C)c2)c(-c2nsc3ccc(-n4c(=O)cc(C(F)(F)F)n(C)c4=O)cc23)c1 (stereo not shown) [Example 542]	Criterion met
CCCCCCCCCOC(=O)COc1ccc(C)cc1-c1nsc2ccc(-n3c(=O)cc(C(F)(F)F)n(C)c3=O)cc12 [Example 519]	Criterion not met
CNC(=O)COc1ccccc1-c1nsc2ccc(-n3c(=O)cc(C(F)(F)F)n(C)c3=O)cc12 [Example 562]	Criterion not met
CCCCCCC#CCCOC(=O)COc1ccc(C)cc1-c1nsc2ccc(-n3c(=O)cc(C(F)(F)F)n(C)c3=O)cc12 [Example 522]	Criterion not met

Query: A record lists Cn1c(C(F)(F)F)cc(=O)n(-c2ccc3snc(/C=C/C(=O)c4ccccc4)c3c2)c1=O [Example 564] . Is its herbicidal effect rating ORYSAT below 2?
Reply: Criterion met

---

# Tested on: Oryza sativa, (L.) Tebonnet
# Protocol Summary: Rice tolerance to post-transplant applications under flooded paddy conditions (Example 187), ORYSAT (Rice, Tebonnet); as to herbicidal effect rating ORYSAT: meaning of each grade not given here
# Recorded Conditions: Rate 0.5000 kg/ha, rated three to four weeks after treatment
Readings of herbicidal effect rating ORYSAT for the listed compounds
# answer = number (no unit)

For orientation, consider the following solved cases.
Compound	Subject Of Test	Value
Cn1c(C(F)(F)F)cc(=O)n(-c2ccc3snc(C(=O)NS(=O)(=O)c4cccs4)c3c2)c1=O [Example 391]	Oryza sativa, (L.) Tebonnet	3.0
CC(C)S(=O)(=O)NC(=O)c1nsc2ccc(-n3c(=O)cc(C(F)(F)F)n(C)c3=O)cc12 [Example 362]	Oryza sativa, (L.) Tebonnet	8.0
Cc1nsc2cc(F)c(-n3c(=O)cc(C(F)(F)F)n(C)c3=O)cc12 [Example 366]	Oryza sativa, (L.) Tebonnet	9.0

Attention now turns to another entry.
Query: Any idea what herbicidal effect rating ORYSAT was measured for COc1ccc(O)c(-c2nsc3ccc(-n4c(=O)cc(C(F)(F)F)n(C)c4=O)cc23)c1 [Example 361] ?
Reply: 3.0

---

# Tested on: Oryza sativa, (L.) Tebonnet
# Protocol Summary: Rice tolerance to post-transplant applications under flooded paddy conditions (Example 187), ORYSAT (Rice, Tebonnet)
# Recorded Conditions: 0.0625 kg/ha, rated three to four weeks after treatment
# herbicidal effect rating, ORYSAT (rice tolerance) per entry
Form: value (number only, do not type unit).

COc1cc(C)c(C)c(C)c1-c1nsc2ccc(-n3c(=O)cc(C(F)(F)F)n(C)c3=O)cc12 0.0
COc1cc(C)ccc1-c1nsc2ccc(-n3c(=O)cc(C(F)(F)F)n(C)c3=O)cc12 8.0
COc1ccc(C(C)C)cc1-c1nsc2ccc(-n3c(=O)cc(C(F)(F)F)n(C)c3=O)cc12 1.0
Cc1ccc(OCC(=O)OC2CCCC2)c(-c2nsc3ccc(-n4c(=O)cc(C(F)(F)F)n(C)c4=O)cc23)c1 3.0
CCc1nsc2ccc(-n3c(=O)cc(C(F)(F)F)n(C)c3=O)cc12 8.0

Query: Recorded herbicidal effect rating, ORYSAT (rice tolerance) for `Cc1ccc(OCC(=O)OCCN(C)C)c(-c2nsc3ccc(-n4c(=O)cc(C(F)(F)F)n(C)c4=O)cc23)c1` , please?
Reply: 4.5

Query: Using the record for `Cn1c(C(F)(F)F)cc(=O)n(-c2ccc3snc(Cl)c3c2)c1=O` , report its herbicidal effect rating, ORYSAT (rice tolerance).
Reply: 1.0

Query: Quick one: herbicidal effect rating, ORYSAT (rice tolerance) for `Cn1c(C(F)(F)F)cc(=O)n(-c2ccc3snc(COCC(F)F)c3c2)c1=O` ?
Reply: 6.0
